The values you see were collected from paper PMC11019746.

studySystem: hY4R (Homo sapiens, UniProt P50391)
Sequence (P50391 whole entry): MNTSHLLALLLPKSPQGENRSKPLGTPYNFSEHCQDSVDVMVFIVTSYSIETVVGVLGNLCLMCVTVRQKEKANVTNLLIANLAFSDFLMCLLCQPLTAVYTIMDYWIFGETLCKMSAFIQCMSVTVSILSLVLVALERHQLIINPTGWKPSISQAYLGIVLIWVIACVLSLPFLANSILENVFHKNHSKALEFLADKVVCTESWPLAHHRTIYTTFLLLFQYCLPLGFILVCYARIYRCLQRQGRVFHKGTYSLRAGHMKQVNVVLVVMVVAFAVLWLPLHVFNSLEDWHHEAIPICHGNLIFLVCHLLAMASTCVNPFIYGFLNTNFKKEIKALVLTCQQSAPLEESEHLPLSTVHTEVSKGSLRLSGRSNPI
assayText: Y4R Ca2+ aequorin assay (CHO-hY4R-Gqi5-mtAEQ cells)
Type: cell-based
Design: expressed in transfected cells; host or cells: CHO (co-expressing Gqi5 and mitochondrially targeted aequorin)
experimentalSetup: read-out: Ca2+-aequorin Emax ± SEM

[
  {
    "compound": "Cc1cc(/C=C/c2cc3c4c(c2)CCCN4CCC3)cc(C)[n+]1CCCC(=O)N[C@@H]1CC(=O)N[C@@H](CCCNC(=N)N)C(=O)N[C@@H](Cc2ccc(O)cc2)C(=O)N[C@H](C(=O)N[C@@H](CC(C)C)C(=O)N[C@@H](CCCNC(=N)N)C(=O)N[C@@H](Cc2ccc(O)cc2)C(N)=O)CCCNC(N)=NC(=O)NCCCCNC1=O [Compound 18]",
    "studySystem": "hY4R (Homo sapiens, UniProt P50391)",
    "displayUnit": "%",
    "Emax": 61
  }
]
